The reader will find reported Ca2+-Uptake C10 values listed item by item below.
- Test System: SERCA2a (Sus scrofa, UniProt P11607)
- Construct: Cardiac SR vesicles were isolated from fresh porcine left ventricular tissue using differential centrifugation; from tissue; host or cells: porcine left ventricular tissue (cardiac SR vesicles)
- Sequence (P11607 1-997 isoform P11607-2): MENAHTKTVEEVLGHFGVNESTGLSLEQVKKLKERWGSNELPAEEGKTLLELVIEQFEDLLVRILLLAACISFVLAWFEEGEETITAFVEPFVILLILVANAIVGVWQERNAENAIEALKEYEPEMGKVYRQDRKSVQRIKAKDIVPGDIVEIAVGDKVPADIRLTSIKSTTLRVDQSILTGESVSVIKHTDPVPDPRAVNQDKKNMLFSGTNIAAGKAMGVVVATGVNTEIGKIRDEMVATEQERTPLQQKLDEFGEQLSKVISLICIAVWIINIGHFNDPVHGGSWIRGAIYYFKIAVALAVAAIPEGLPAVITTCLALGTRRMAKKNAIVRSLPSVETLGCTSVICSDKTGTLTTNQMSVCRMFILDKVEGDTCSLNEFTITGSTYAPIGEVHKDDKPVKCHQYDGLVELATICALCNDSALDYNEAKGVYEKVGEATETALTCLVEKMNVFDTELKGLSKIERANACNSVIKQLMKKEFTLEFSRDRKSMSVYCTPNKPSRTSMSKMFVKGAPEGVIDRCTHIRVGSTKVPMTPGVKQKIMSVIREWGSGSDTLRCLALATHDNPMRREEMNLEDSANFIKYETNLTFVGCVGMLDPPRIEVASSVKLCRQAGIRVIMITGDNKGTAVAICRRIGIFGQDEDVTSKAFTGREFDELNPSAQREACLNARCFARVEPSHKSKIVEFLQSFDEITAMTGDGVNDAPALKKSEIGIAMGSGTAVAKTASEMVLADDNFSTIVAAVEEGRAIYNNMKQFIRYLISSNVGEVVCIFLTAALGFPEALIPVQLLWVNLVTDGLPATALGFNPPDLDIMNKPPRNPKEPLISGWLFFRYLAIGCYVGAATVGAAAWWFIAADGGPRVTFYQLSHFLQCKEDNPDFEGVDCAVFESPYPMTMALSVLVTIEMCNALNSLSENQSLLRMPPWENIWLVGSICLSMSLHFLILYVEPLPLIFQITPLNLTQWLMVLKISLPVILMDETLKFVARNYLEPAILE
- Run Description: Oxalate-supported Fluo-4 Ca2+-uptake (Ca2+-transport) assay in pig cardiac SR (pCSR) vesicles
- Format: biochemical
- Experimental Context: [Ca2+]MAX (pCa5.4), concentration yielding 10% effect

Reference set (4 entries):
COc1ccc(Cn2cc(C(=O)N(C)Cc3ccnc4ccccc34)nn2)cc1 | 4.1 µM
COC(=O)CSc1ncc(-c2ccc(F)cc2)c(C2CCCN(C(=O)c3cccc(F)c3)C2)n1 (stereo not drawn) | 0.2 µM
Cc1cnc(C)c(N2CCN(C(=O)c3cc(COc4ccc5ncccc5c4)on3)CC2)n1 | 50 µM
Cc1nc(N2CCCCCCC2)ncc1C(C)NC(=O)c1ccnn1C (stereo not drawn) | 8.6 µM

Prompt: Consider the molecule CCc1ccc(S(=O)(=O)N2CCCC(C(=O)c3sccc3C)C2)cc1 (stereo not drawn) . State its measured Ca2+-Uptake C10.
Completion: 1.3 µM

Prompt: Quote Ca2+-Uptake C10 reported for OCC1(CCOc2ccccc2)CCCN(Cc2cc3c(cc2Cl)OCO3)C1 (stereo not drawn) please.
Completion: 0.5 µM

Prompt: Write down Ca2+-Uptake C10 measured for item `O=C(c1cc(COc2ccc3c(c2)CCCC3)on1)N1CCC(c2ccncc2)CC1`
Completion: 17.5 µM

Prompt: // Input: COc1ccc(C(=O)C2CCCN(Cc3nc(-c4ccc(F)cc4)cs3)C2)c(OC)c1 (stereo not drawn) . Output its Ca2+-Uptake C10 only.
Completion: 25 µM

Prompt: Answer with the recorded Ca2+-Uptake C10 of `O=S(=O)(NCc1ccccc1)N1CCc2ccc(C(F)(F)F)cc2C1` only.
Completion: 1 µM
